# experimental.system: T1, human programmed cell death protein 1 (hPD-1) C93S (aa 24-167) (Homo sapiens, UniProt Q15116, C93S)
# T1 construct: made as a fusion with a TEV site and human Fc; the Fc was cut off with TEV protease; source: Expi293F, purified (Protein A, TEV cleavage of Fc, SEC; monomer fractions); not shown: Fc (human), C-terminal, cleaved
# T1 sequence (Q15116 24-167 C93S): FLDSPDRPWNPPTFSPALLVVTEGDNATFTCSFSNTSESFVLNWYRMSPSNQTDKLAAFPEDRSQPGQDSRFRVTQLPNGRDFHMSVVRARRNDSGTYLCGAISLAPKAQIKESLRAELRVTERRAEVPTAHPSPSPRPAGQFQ
# measurement.notes: SPR; Carterra LSA; Fab from the ammonium sulfate precipitate of the culture supernatant immobilised on a NiHC200M chip; hPD-1 (1-1024 nM) or mPD-1-Fc (4-1024 nM) as analyte, fourfold dilution series, no regeneration; HBS-EP pH 7.4, 25 °C; medians over the spots of a construct, KD = koff/kon
# details: one partner purified
value.kind: kon

- toripalimab Fab L.P100Q (Fab, V domains shown, as the heavy chain of Sm3; light chain of Sm3 with this change; numbers count from the chain's first residue; source: Brevibacillus, culture supernatant (ammonium sulfate precipitate); not shown: 6xHis, C-terminal, kept; 6xHN, C-terminal, kept) VH: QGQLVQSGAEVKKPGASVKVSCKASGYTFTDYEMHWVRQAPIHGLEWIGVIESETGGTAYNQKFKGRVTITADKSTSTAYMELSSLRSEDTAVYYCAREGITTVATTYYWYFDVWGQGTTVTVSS VL: DVVMTQSPLSLPVTLGQPASISCRSSQSIVHSNGNTYLEWYLQKPGQSPQLLIYKVSNRFSGVPDRFSGSGSGTDFTLKISRVEAEDVGVYYCFQGSHVQLTFGQGTKLEIK: 8600 M⁻¹ s⁻¹
- toripalimab Fab L.V99L (Fab, V domains shown, as the heavy chain of Sm3; light chain of Sm3 with this change; numbers count from the chain's first residue; source: Brevibacillus, culture supernatant (ammonium sulfate precipitate); not shown: 6xHis, C-terminal, kept; 6xHN, C-terminal, kept) VH: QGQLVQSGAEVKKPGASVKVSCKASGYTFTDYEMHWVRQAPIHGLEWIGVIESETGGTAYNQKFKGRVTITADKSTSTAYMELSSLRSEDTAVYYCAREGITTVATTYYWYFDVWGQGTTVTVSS VL: DVVMTQSPLSLPVTLGQPASISCRSSQSIVHSNGNTYLEWYLQKPGQSPQLLIYKVSNRFSGVPDRFSGSGSGTDFTLKISRVEAEDVGVYYCFQGSHLPLTFGQGTKLEIK: 7020 M⁻¹ s⁻¹
- toripalimab Fab L.S26Y (Fab, V domains shown, as the heavy chain of Sm3; light chain of Sm3 with this change; numbers count from the chain's first residue; source: Brevibacillus, culture supernatant (ammonium sulfate precipitate); not shown: 6xHis, C-terminal, kept; 6xHN, C-terminal, kept) VH: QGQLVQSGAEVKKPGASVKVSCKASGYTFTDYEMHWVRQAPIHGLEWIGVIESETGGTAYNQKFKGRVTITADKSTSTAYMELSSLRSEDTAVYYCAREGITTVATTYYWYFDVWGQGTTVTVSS VL: DVVMTQSPLSLPVTLGQPASISCRSYQSIVHSNGNTYLEWYLQKPGQSPQLLIYKVSNRFSGVPDRFSGSGSGTDFTLKISRVEAEDVGVYYCFQGSHVPLTFGQGTKLEIK: 17500 M⁻¹ s⁻¹
- toripalimab Fab L.V99Q (Fab, V domains shown, as the heavy chain of Sm3; light chain of Sm3 with this change; numbers count from the chain's first residue; source: Brevibacillus, culture supernatant (ammonium sulfate precipitate); not shown: 6xHis, C-terminal, kept; 6xHN, C-terminal, kept) VH: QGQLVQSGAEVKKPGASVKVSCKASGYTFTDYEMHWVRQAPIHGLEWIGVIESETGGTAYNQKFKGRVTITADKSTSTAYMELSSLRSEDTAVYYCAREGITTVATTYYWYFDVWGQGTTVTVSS VL: DVVMTQSPLSLPVTLGQPASISCRSSQSIVHSNGNTYLEWYLQKPGQSPQLLIYKVSNRFSGVPDRFSGSGSGTDFTLKISRVEAEDVGVYYCFQGSHQPLTFGQGTKLEIK: 7930 M⁻¹ s⁻¹
- toripalimab Fab L.V30Y (Fab, V domains shown, as the heavy chain of Sm3; light chain of Sm3 with this change; numbers count from the chain's first residue; source: Brevibacillus, culture supernatant (ammonium sulfate precipitate); not shown: 6xHis, C-terminal, kept; 6xHN, C-terminal, kept) VH: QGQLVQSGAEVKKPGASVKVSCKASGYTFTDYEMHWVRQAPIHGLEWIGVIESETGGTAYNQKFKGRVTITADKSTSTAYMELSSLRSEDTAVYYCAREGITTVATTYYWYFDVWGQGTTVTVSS VL: DVVMTQSPLSLPVTLGQPASISCRSSQSIYHSNGNTYLEWYLQKPGQSPQLLIYKVSNRFSGVPDRFSGSGSGTDFTLKISRVEAEDVGVYYCFQGSHVPLTFGQGTKLEIK: 17600 M⁻¹ s⁻¹
- toripalimab Fab L.L101E (Fab, V domains shown, as the heavy chain of Sm3; light chain of Sm3 with this change; numbers count from the chain's first residue; source: Brevibacillus, culture supernatant (ammonium sulfate precipitate); not shown: 6xHis, C-terminal, kept; 6xHN, C-terminal, kept) VH: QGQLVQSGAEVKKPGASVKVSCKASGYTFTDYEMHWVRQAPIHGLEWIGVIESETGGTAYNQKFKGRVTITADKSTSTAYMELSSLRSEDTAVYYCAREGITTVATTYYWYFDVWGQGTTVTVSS VL: DVVMTQSPLSLPVTLGQPASISCRSSQSIVHSNGNTYLEWYLQKPGQSPQLLIYKVSNRFSGVPDRFSGSGSGTDFTLKISRVEAEDVGVYYCFQGSHVPETFGQGTKLEIK: 9060 M⁻¹ s⁻¹
- toripalimab Fab L.V99P (Fab, V domains shown, as the heavy chain of Sm3; light chain of Sm3 with this change; numbers count from the chain's first residue; source: Brevibacillus, culture supernatant (ammonium sulfate precipitate); not shown: 6xHis, C-terminal, kept; 6xHN, C-terminal, kept) VH: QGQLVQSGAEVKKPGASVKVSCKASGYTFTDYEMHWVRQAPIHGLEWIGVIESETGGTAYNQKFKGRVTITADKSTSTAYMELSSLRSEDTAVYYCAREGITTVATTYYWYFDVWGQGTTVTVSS VL: DVVMTQSPLSLPVTLGQPASISCRSSQSIVHSNGNTYLEWYLQKPGQSPQLLIYKVSNRFSGVPDRFSGSGSGTDFTLKISRVEAEDVGVYYCFQGSHPPLTFGQGTKLEIK: 9660 M⁻¹ s⁻¹
- toripalimab Fab L.S32Y (Fab, V domains shown, as the heavy chain of Sm3; light chain of Sm3 with this change; numbers count from the chain's first residue; source: Brevibacillus, culture supernatant (ammonium sulfate precipitate); not shown: 6xHis, C-terminal, kept; 6xHN, C-terminal, kept) VH: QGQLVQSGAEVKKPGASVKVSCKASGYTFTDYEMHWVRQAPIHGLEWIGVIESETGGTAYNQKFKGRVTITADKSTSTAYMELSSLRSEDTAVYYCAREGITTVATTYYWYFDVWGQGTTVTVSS VL: DVVMTQSPLSLPVTLGQPASISCRSSQSIVHYNGNTYLEWYLQKPGQSPQLLIYKVSNRFSGVPDRFSGSGSGTDFTLKISRVEAEDVGVYYCFQGSHVPLTFGQGTKLEIK: 14800 M⁻¹ s⁻¹
- toripalimab Fab L.L101Q (Fab, V domains shown, as the heavy chain of Sm3; light chain of Sm3 with this change; numbers count from the chain's first residue; source: Brevibacillus, culture supernatant (ammonium sulfate precipitate); not shown: 6xHis, C-terminal, kept; 6xHN, C-terminal, kept) VH: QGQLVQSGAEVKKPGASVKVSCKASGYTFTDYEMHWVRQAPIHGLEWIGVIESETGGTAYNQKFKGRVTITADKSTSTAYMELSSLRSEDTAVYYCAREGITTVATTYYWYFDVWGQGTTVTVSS VL: DVVMTQSPLSLPVTLGQPASISCRSSQSIVHSNGNTYLEWYLQKPGQSPQLLIYKVSNRFSGVPDRFSGSGSGTDFTLKISRVEAEDVGVYYCFQGSHVPQTFGQGTKLEIK: 8990 M⁻¹ s⁻¹
- toripalimab Fab H.H35Y (Fab, V domains shown, heavy chain of Sm3 with this change; numbers count from the chain's first residue; as the light chain of Sm3; source: Brevibacillus, culture supernatant (ammonium sulfate precipitate); not shown: 6xHis, C-terminal, kept; 6xHN, C-terminal, kept) VH: QGQLVQSGAEVKKPGASVKVSCKASGYTFTDYEMYWVRQAPIHGLEWIGVIESETGGTAYNQKFKGRVTITADKSTSTAYMELSSLRSEDTAVYYCAREGITTVATTYYWYFDVWGQGTTVTVSS VL: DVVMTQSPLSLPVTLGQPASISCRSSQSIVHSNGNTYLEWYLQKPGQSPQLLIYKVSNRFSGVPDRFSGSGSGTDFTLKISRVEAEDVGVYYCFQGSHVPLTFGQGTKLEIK: 9390 M⁻¹ s⁻¹
